The reported numbers originate from paper PMC3804772.

test system: MCF-7 cells; test: Cell cycle analysis by flow cytometry (propidium iodide); assay type: cell-based, human; conditions: MCF-7, 25 µM, 72 hours
Reported Cell cycle parameters % Sub-G1, 72 hours is given for each of the following compounds.
Please give a number only; it is taken to be in %.

Example results:
COc1ccc2c(c1OC)C(=O)O[C@@H]2[C@H]1c2c(cc3c(c2OC)OCO3)CCN1C [Compound 1, noscapine]
30.62
COc1ccc2c(c1OC)C(=O)O[C@@H]2[C@@H]1NCCc2cc3c(c(OC)c21)OCO3 [Compound 5a]
41.57

As a next step, examine the compound that follows.
The observed Cell cycle parameters % Sub-G1, 72 hours for COC(=O)CN1CCc2cc3c(c(OC)c2[C@@H]1[C@H]1OC(=O)c2c1ccc(OC)c2OC)OCO3 [Compound 6i] when tested with MCF-7 cells stands at 40.18

----------
Reported Kd is given for each of the following compounds.
Target: tubulin (Bos taurus, UniProt P81947+Q6B856)
Construct: Tubulin devoid of microtubule-associated proteins (MAPs) was purified from bovine brain
Sequence (Q6B856 whole entry): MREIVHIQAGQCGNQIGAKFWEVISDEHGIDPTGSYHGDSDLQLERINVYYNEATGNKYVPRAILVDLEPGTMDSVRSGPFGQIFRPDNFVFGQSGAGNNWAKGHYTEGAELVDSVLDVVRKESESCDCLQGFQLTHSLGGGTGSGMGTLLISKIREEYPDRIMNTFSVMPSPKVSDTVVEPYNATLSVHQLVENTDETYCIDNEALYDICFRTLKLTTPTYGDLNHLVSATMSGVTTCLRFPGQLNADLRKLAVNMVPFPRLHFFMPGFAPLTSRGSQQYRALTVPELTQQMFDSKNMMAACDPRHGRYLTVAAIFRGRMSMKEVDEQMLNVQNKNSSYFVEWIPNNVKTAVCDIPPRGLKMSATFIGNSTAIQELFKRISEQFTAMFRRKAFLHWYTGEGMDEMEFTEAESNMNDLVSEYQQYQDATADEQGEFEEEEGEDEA
Sequence (P81947 whole entry): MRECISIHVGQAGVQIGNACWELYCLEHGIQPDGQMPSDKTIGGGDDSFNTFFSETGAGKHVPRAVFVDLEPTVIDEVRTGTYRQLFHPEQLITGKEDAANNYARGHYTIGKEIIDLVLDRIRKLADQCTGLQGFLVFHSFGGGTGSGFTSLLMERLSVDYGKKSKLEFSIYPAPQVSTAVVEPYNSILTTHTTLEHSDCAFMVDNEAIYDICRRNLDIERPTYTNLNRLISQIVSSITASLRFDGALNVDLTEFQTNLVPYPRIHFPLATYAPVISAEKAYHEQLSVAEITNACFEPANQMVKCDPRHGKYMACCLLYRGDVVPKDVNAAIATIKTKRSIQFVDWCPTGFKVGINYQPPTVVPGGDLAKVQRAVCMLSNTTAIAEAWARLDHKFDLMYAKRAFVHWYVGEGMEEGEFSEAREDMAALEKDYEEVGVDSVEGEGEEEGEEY
Test: Tubulin binding assay (quenching of intrinsic tryptophan fluorescence)
Settings: 2 µM tubulin, PEM buffer pH 6.8, 37 °C, 45 min; mean ± S.D.
Protocol: Tubulin devoid of microtubule-associated proteins (MAPs) was purified from bovine brain by cycles of temperature-dependent polymerization and depolymerization as described previously followed by phosphocellulose chromatography. The concentration of the tubulin was determined by the method of Bradford using BSA as the standard. […] Noscapinoids quench the […] intrinsic tryptophan fluorescence of tubulin in a concentration-dependent fashion as described previously. […]
Please give a number only; it is taken to be in µM.

CCOC(=O)CN1CCc2cc3c(c(OC)c2[C@@H]1[C@H]1OC(=O)c2c1ccc(OC)c2OC)OCO3
228

Entry "COc1ccc2c(c1OC)C(=O)O[C@@H]2[C@H]1c2c(cc3c(c2OC)OCO3)CCN1Cc1ccc([N+](=O)[O-])cc1" — recorded Kd = 91

Entry "COc1ccc2c(c1OC)C(=O)O[C@@H]2[C@H]1c2c(cc3c(c2OC)OCO3)CCN1Cc1cccc(Br)c1" — recorded Kd = 38

Entry "COC(=O)CN1CCc2cc3c(c(OC)c2[C@@H]1[C@H]1OC(=O)c2c1ccc(OC)c2OC)OCO3" — recorded Kd = 79

Entry "COc1ccc2c(c1OC)C(=O)O[C@@H]2[C@@H]1NCCc2cc3c(c(OC)c21)OCO3" — recorded Kd = 68

----------
tested on: MCF-7 cells; test: Cell cycle analysis by flow cytometry (propidium iodide); format: cell-based, human; conditions: MCF-7, 25 µM, 24 hours
Reported Cell cycle parameters % S, 24 hours is given for each of the following molecules.
Please give a number only; it is taken to be in %.

COc1ccc2c(c1OC)C(=O)O[C@@H]2[C@H]1c2c(cc3c(c2OC)OCO3)CCN1Cc1ccc([N+](=O)[O-])cc1 [Compound 6c]
4.85
COc1ccc2c(c1OC)C(=O)O[C@@H]2[C@H]1c2c(cc3c(c2OC)OCO3)CCN1Cc1ccc(Br)cc1 [Compound 6b]
4.16
COC(=O)CN1CCc2cc3c(c(OC)c2[C@@H]1[C@H]1OC(=O)c2c1ccc(OC)c2OC)OCO3 [Compound 6i]
4.62
COc1ccc2c(c1OC)C(=O)O[C@@H]2[C@H]1c2c(cc3c(c2OC)OCO3)CCN1C [Compound 1, noscapine]
4.19
COc1ccc2c(c1OC)C(=O)O[C@@H]2[C@H]1c2c(cc3c(c2OC)OCO3)CCN1Cc1cccc(Cl)c1 [Compound 6e]
4.57
COc1cccc(CN2CCc3cc4c(c(OC)c3[C@@H]2[C@H]2OC(=O)c3c2ccc(OC)c3OC)OCO4)c1 [Compound 6g]
4.08

As a next step, examine the molecule that follows.
Entry COc1ccc(CN2CCc3cc4c(c(OC)c3[C@@H]2[C@H]2OC(=O)c3c2ccc(OC)c3OC)OCO4)cc1 [Compound 6d] — recorded Cell cycle parameters % S, 24 hours = 4.62
